The measured values listed here are drawn from patent US12606551B2.

Experiment: Pharmacokinetic assay in SD rats
Type: in vivo
Settings: both sexes, Sprague-Dawley, rat, PO 60 mg/kg, plasma, read-out: Half life T½ (converted)
resultType: half-life
Reply with the number and its unit after it.

Recall and state the measured half-life for COc1ccc(COc2c(OC)ccc3c2C[C@@H](C(=O)O)N(c2nc4ccc(F)cc4o2)C3)nc1 [Compound 1m] . 3.73 h

Recall and state the measured half-life for COc1ccc(COc2c(OC)ccc3c2C[C@@H](C(=O)[O-])N(c2nc4ccc(F)cc4o2)C3)nc1.[Na+] [Compound 1] . 3.57 h

* * *

Assay: Pharmacokinetic assay in SD rats
Assay type: in vivo
Conditions: both sexes, Sprague-Dawley, rat, PO 60 mg/kg, plasma, read-out: Area under the curve AUC0-∞
resultType: AUC(0-inf)

Recall and state the measured AUC(0-inf) for COc1ccc(COc2c(OC)ccc3c2C[C@@H](C(=O)[O-])N(c2nc4ccc(F)cc4o2)C3)nc1.[Na+] . 328 µg·h/mL

Recall and state the measured AUC(0-inf) for COc1ccc(COc2c(OC)ccc3c2C[C@@H](C(=O)O)N(c2nc4ccc(F)cc4o2)C3)nc1 . 22.2 µg·h/mL
